- assay target: T1, Bicoid DBD-GST (Bcd) (UniProt P09081 83-170)
- T1 sequence: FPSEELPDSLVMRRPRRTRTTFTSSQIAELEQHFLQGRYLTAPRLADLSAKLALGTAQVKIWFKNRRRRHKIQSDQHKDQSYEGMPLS
- assay: competitive fluorescence anisotropy (HiP-FA); mean of replicates 3.661, 3.6795; HiP-FA: 33 mM phosphate pH 7.0, 90 mM NaCl, 0.01% Tween 20, 0.1 mM DTT, 0.5% agarose; conventional titration and EMSA: 20 mM Tris-acetate pH 7.0, 50 nM (sic) NaCl, 0.01% Tween-20, 0.1 mM DTT
- measurement context: protein: recombinant; tags: N-terminal GST; blunt, G:G mismatch at position 6
measurement name: pKd
One number for each entry, as −log10 of the molar value.

QUERY: Given Bcd competitor 28 (C10G) (dsDNA) DNA 1: TCGACGGTAATCCGTA DNA 2: TACGGATTACGGTCGA , state its recorded pKd.
RESULT: 8.44

All values here come from paper PMC5913336.
